Listed here: items and their measured IC50.
target: Recombinant Human NF-kappaB-Inducing Kinase (NIK/MAP3K14) (Homo sapiens, UniProt Q99558); assay: Inhibition of auto-phosphorylation of recombinant human NIK/MAP3K14 activity (AlphaScreen); settings: 5 μM ATP, 1 nM NIK, average if tested more than once
Sequence (Q99558 whole entry): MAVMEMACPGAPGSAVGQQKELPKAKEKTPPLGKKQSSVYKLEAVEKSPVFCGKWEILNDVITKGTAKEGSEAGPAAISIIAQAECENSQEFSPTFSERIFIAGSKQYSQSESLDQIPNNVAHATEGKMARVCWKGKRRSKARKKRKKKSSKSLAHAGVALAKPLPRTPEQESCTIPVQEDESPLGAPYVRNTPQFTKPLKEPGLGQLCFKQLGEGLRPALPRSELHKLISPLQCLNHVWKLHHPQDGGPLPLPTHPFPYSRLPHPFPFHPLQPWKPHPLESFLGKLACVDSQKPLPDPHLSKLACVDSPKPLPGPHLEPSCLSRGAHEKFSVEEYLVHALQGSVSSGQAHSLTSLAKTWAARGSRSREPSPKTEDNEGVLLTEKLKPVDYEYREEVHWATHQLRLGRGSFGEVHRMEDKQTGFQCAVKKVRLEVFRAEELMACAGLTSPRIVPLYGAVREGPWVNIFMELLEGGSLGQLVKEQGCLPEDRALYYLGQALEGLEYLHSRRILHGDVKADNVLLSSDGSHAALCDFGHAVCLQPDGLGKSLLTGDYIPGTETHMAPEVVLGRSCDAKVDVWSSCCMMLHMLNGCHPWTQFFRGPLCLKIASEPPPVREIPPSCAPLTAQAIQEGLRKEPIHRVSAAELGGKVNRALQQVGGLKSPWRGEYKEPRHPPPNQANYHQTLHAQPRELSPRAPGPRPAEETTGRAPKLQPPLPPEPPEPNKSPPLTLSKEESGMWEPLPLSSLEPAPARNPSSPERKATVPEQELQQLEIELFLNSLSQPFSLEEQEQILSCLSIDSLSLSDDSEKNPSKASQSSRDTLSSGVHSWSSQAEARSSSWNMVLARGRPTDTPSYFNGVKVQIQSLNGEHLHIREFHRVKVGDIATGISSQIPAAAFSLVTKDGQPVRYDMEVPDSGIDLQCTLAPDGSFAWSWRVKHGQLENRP

Data request: For Recombinant Human NF-kappaB-Inducing Kinase (NIK/MAP3K14) (Homo sapiens, UniProt Q99558), provide IC50 of CN1CC[C@@](O)(c2cccc(-c3nc(-c4ccnc(N)n4)cs3)c2)C1=O please.
Data returned: 0.1 to 0.5 µM

Data request: Hi! What's the reported IC50 for CN1CC[C@@](O)(c2cccc(-c3nc(-c4ccnc(Nc5ncccc5F)n4)cs3)c2)C1=O on Recombinant Human NF-kappaB-Inducing Kinase (NIK/MAP3K14) (Homo sapiens, UniProt Q99558)?
Data returned: 0.1 to 0.5 µM

Data request: Recorded IC50 for CN1CCO[C@@H](CNc2nccc(-c3csc(-c4cccc([C@]5(O)CCN(C)C5=O)c4)n3)n2)C1 with Recombinant Human NF-kappaB-Inducing Kinase (NIK/MAP3K14) (Homo sapiens, UniProt Q99558), please?
Data returned: > 0.501 µM

Data request: Please state recorded IC50 (tested on Recombinant Human NF-kappaB-Inducing Kinase (NIK/MAP3K14) (Homo sapiens, UniProt Q99558)) of Cc1sc(-c2cccc([C@]3(O)CCN(C)C3=O)c2)nc1-c1ccnc(Nc2ccn(C)n2)n1
Data returned: < 0.1 µM

Data request: // fetch Recombinant Human NF-kappaB-Inducing Kinase (NIK/MAP3K14) (Homo sapiens, UniProt Q99558) IC50 for C[C@@H](Nc1nccc(-c2csc(-c3cccc([C@]4(O)CCN(C)C4=O)c3)n2)n1)c1ccccn1
Data returned: < 0.1 µM

Data request: # query: IC50 | item CN1CC[C@@](O)(c2cccc(-c3nc(-c4ccnc(Nc5cccnc5)n4)cs3)c2)C1=O | system: Recombinant Human NF-kappaB-Inducing Kinase (NIK/MAP3K14) (Homo sapiens, UniProt Q99558)
Data returned: > 0.501 µM

Data request: What value of IC50 on Recombinant Human NF-kappaB-Inducing Kinase (NIK/MAP3K14) (Homo sapiens, UniProt Q99558) does CC(C)n1nccc1Nc1nccc(-c2csc(-c3cccc([C@]4(O)CCN(C)C4=O)c3)n2)n1 have?
Data returned: 0.1 to 0.5 µM

Data request: Observed IC50 on Recombinant Human NF-kappaB-Inducing Kinase (NIK/MAP3K14) (Homo sapiens, UniProt Q99558) for CN1CC[C@@](O)(c2cccc(-c3nc(-c4ccnc(Nc5cnn6ccccc56)n4)cs3)c2)C1=O , please.
Data returned: < 0.1 µM

* * *

test system: p-IKKa levels in L363 (NIK translocated multiple myeloma) cells; assay: Effect of compounds on p-IKKa levels in L363 (NIK translocated multiple myeloma) cells (AlphaLISA SureFire Ultra p-IKKa Ser176/180); type: cell-based, human; conditions: Homo sapiens, L-363, p-IKKa levels in L363 cells; average if tested more than once; read-out: Assay 2 IC50
pIC50: −log10 of the molar value.
quantity.kind: pIC50

Solved cases (8 shown):
Data request: What is its pIC50 for p-IKKa levels in L363 (NIK translocated multiple myeloma) cells? Entry: CN1C(=O)[C@@](O)(c2cncc(-c3csc(-c4ccnc(Nc5ccn(C)n5)n4)n3)c2)C[C@@H]1C(F)(F)F (single isomer, unassigned)
Data returned: < 6.30

Data request: API: value(readout=pIC50, system=p-IKKa levels in L363 (NIK translocated multiple myeloma) cells) for record Cc1ncc(CNc2nccc(-c3csc(-c4cccc([C@]5(O)CCN(C)C5=O)c4)n3)n2)o1
Data returned: < 6.30

Data request: Param readout= pIC50; system= p-IKKa levels in L363 (NIK translocated multiple myeloma) cells; entry= CN1CC[C@@](O)(c2cccc(-c3nc(-c4ccnc(N[C@@H]5CNC(=O)C5)n4)cs3)c2)C1=O ; returns value.
Data returned: < 6.30

Data request: pIC50 of CN1CC[C@@](O)(c2cccc(-c3nc(-c4ccnc(Nc5cc(C(F)(F)F)nn5C)n4)cs3)c2)C1=O on p-IKKa levels in L363 (NIK translocated multiple myeloma) cells?
Data returned: < 6.30

Data request: Record lookup: for p-IKKa levels in L363 (NIK translocated multiple myeloma) cells, what pIC50 belongs to COCCn1cc(Nc2nccc(-c3csc(-c4cccc([C@]5(O)CCN(C)C5=O)c4)n3)n2)cn1 ?
Data returned: 6.30 to 7.00

Data request: Field: pIC50 (p-IKKa levels in L363 (NIK translocated multiple myeloma) cells). Entry: CN1CCn2nc(Nc3nccc(-c4csc(-c5cccc([C@]6(O)CCN(C)C6=O)c5)n4)n3)cc2C1=O
Data returned: 6.30 to 7.00

Data request: pIC50 of CN1CC[C@@](O)(c2cccc(-c3nc(-c4ccnc(Nc5cn(C)nc5OC5CCCC5)n4)cs3)c2)C1=O on p-IKKa levels in L363 (NIK translocated multiple myeloma) cells?
Data returned: 6.30 to 7.00

Data request: For p-IKKa levels in L363 (NIK translocated multiple myeloma) cells, provide pIC50 of CN1CC[C@@](O)(c2cccc(-c3nc(-c4ccnc(Nc5cccc(C(F)(F)F)n5)n4)cs3)c2)C1=O please.
Data returned: < 6.30

Please find the next compound below.
Data request: Kindly state the measured pIC50 obtained for C[C@H](Nc1nccc(-n2ccc(-c3cccc([C@]4(O)CCN(C)C4=O)c3)n2)n1)c1ccnn1C (single isomer, unassigned) with p-IKKa levels in L363 (NIK translocated multiple myeloma) cells.
Data returned: 6.30 to 7.00
